Where do the numbers come from? From patent US20250154287A1.

Measured mean fluorescence intensity at the top saturating concentration tested values are reported for all entries that follow.
experimental target: T1, human membrane IgA overexpressed on Ramos cells (human)
T1 construct: its MIGIS-α segment is the short form; also called IgA^+ Ramos; human IgA^+ RAMOS cells
T1 sequence (heavy, as listed by the source): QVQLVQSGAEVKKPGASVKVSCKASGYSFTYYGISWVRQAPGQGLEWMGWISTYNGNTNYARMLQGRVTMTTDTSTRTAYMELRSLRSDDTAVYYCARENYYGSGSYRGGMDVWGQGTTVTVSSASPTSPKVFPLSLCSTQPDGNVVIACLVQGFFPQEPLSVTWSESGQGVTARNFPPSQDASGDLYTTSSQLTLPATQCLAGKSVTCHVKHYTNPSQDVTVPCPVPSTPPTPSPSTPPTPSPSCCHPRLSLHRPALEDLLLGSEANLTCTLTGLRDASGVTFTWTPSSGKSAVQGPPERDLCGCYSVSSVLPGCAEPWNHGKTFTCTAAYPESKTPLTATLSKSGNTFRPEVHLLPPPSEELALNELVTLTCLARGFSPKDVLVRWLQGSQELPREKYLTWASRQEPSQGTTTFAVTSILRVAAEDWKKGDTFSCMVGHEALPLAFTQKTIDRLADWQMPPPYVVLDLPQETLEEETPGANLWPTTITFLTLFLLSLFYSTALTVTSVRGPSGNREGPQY
assay details: flow cytometry on IgA+ Ramos cells
measured metric: mean fluorescence intensity at the top saturating concentration tested (MFI)

1. GBT-IgA-0020 (15E7) (antibody, V domains shown) VH: EVQLLESGGGLVQPGGSLRLSCAASGFTFSSYAMSWVRQVPGKGLEWVSAITGSGSGTYYADPVKGRFTISRDNSKNTLYLQMNSLRAEDTAVYHCAKERSGSSSDYWGQGTLVTVSS VL: EIVLTQSPATLSLSPGERATLSCRASQTVSSYLAWYQQKPGQAPRLLIYEASNRATGIPPRFSGSGSGTDFTLTISSLEPEDFAVYYCQQRNNWPITFGQGTRLESKR; 23100
2. GBT-IgA-0035 (ET17) (antibody, V domains shown, Heavy constant region of the tested format is not tied to this name; also called E17) VH: EVQLLESGGGLVQPGGSLRLSCAASGFTFSRYAMSWVRQVPGKGLEWVSAITGSGSGTYYADPVKGRFTISRDNSKNTLYLQMNSLRAEDTAVYHCAKERSGSSSDYWGQGTLVTVSS VL: EIVLTQSPATLSLSPGERATLSCRASQTVGSHLAWYQQKPGQAPRLLIYEASNRATGIPPRFSGSGSGTDFTLTISSLEPEDFAVYYCQQRNNWPITFGQGTRLESKR; 23600
3. GBT-IgA-0036 (ET18) (antibody, V domains shown, Heavy constant region of the tested format is not tied to this name; also called E18) VH: EVQLLESGGGLVQPGGSLRLSCAASGFTFSRYAMSWVRQVPGKGLEWVSAITGSGSGTYYADPVKGRFTISRDNSKNTLYLQMNSLRAEDTAVYHCAKERSGSSSDYWGQGTLVTVSS VL: EIVLTQSPATLSLSPGERATLSCRASQTVSSHLAWYQQKPGQAPRLLIYEASNRATGIPPRFSGSGSGTDFTLTISSLEPEDFAVYYCQQRNNWPITFGQGTRLESKR; 26100
4. GBT-IgA-0034 (ET10) (antibody, V domains shown, Heavy constant region of the tested format is not tied to this name; also called E10) VH: EVQLLESGGGLVQPGGSLRLSCAASGFTFSSYAMSWVRQVPGKGLEWVSSITGSGGGTYYADPVKGRFTISRDNSKNTLYLQMNSLRAEDTAVYHCAKERSGSSSDYWGQGTLVTVSS VL: EIVLTQSPATLSLSPGERATLSCRASQTVRSHLAWYQQKPGQAPRLLIYEASNRATGIPPRFSGSGSGTDFTLTISSLEPEDFAVYYCQQRNNWPITFGQGTRLESKR; 22600
